# System: DDR1 (Homo sapiens)
# Sequence (Q08345 19-913): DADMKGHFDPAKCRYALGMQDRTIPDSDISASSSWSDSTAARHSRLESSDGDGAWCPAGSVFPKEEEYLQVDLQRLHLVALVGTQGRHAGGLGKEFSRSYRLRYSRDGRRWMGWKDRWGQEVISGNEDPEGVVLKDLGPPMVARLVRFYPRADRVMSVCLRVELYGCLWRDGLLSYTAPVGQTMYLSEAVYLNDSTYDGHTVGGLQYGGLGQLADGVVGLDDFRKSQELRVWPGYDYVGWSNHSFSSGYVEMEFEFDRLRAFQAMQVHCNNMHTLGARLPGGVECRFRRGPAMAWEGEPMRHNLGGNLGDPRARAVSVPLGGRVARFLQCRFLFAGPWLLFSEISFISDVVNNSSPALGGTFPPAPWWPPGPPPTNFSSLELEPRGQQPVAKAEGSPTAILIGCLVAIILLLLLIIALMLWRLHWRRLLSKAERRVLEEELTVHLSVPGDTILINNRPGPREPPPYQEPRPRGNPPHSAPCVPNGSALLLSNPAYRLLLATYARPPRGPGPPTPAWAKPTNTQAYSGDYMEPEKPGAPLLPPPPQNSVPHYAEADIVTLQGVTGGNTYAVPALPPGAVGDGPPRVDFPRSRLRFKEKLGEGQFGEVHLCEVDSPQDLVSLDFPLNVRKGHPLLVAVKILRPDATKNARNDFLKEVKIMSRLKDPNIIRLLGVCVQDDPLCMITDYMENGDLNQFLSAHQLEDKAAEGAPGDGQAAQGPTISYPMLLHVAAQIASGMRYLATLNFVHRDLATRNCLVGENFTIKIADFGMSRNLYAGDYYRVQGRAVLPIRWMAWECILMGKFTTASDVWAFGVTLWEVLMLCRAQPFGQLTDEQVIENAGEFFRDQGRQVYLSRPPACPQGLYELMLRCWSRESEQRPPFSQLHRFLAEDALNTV
# Assay summary: DDR1 binding assay (LanthaScreen Europium Kinase Binding assay)
# Parameters: purchased Carna Biosciences
# Experimental context: 5 nM DDR1, 20 nM Kinase Tracer 178, 1 hour at room temperature; IC50 converted in Ki using the Cheng-Prusoff equation; read-out: DDR1 Ki
Measured Ki of individual entries

{"Input smiles": "CN1CCN(Cc2cc(NC(=O)c3cc4c(s3)CN(C(=O)c3cnc5ccccn35)CC4)cc(C(F)(F)F)c2)CC1", "Ki": "312 nM"}

Pending molecule:
Challenge: // output Ki; input CN1CCN(Cc2cc(NC(=O)c3cc4c(s3)CCN(C(=O)c3cnc5ccccn35)C4)cc(C(F)(F)F)c2)CC1 ; system DDR1 (Homo sapiens)
Response given: 195 nM
